Provenance of the data: PubChem BioAssay AID1919016

- Tested on: NCI-H196 complex spheroid growth, percent test/control
- Method notes: Anticancer human tumor NCI-H196 cell line growth inhibition [AhR];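 further: seven days of drug exposure starting three days after plating; 100% = DMSO vehicle control wells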
- Particulars: second compound 0.1 µM; first compound 0.00316 µM; stronger effect = lower value
Assay metric: viability, T/C (%)
Lab book: enter the figure in %, no units written.

The cases that follow already have their viability, T/C on record.
For this molecule ( Cn1ncnc1C1c2n[nH]c(=O)c3cc(F)cc(c23)NC1c1ccc(F)cc1 (stereo unspecified) + Cc1cncc(-c2nc(NCCc3c[nH]c4ccccc34)c3ncn(C(C)C)c3n2)c1 ), measured viability, T/C is 114

For this molecule ( CC[C@@]1(O)C(=O)OCc2c1cc1n(c2=O)Cc2cc3c(CN(C)C)c(O)ccc3nc2-1 + CC(CO)NC(=O)c1cc(-c2ccc(Cl)cc2)nn(-c2cnn(C)c2)c1=O ), measured viability, T/C is 97.8

For this molecule ( CC1COCCN1c1cc(-c2ccnn2C)c2ccnc(-c3ccn[nH]3)c2n1 (stereo unspecified) + Cc1cncc(-c2nc(NCCc3c[nH]c4ccccc34)c3ncn(C(C)C)c3n2)c1 ), measured viability, T/C is 105

Others:
For this molecule ( Nc1ncn(C2CC(O)C(CO)O2)c(=O)n1 (stereo unspecified) + Cc1ccccc1N=Nc1ccc(NC(=O)c2ccnn2C)c(C)c1 ), measured viability, T/C is 92.6

For this molecule ( CC1COCCN1c1cc(-c2ccnn2C)c2ccnc(-c3ccn[nH]3)c2n1 (stereo unspecified) + Cc1ccccc1N=Nc1ccc(NC(=O)c2ccnn2C)c(C)c1 ), measured viability, T/C is 96.4

For this molecule ( CC[C@@]1(O)C(=O)OCc2c1cc1n(c2=O)Cc2cc3c(CN(C)C)c(O)ccc3nc2-1 + Cc1ccccc1N=Nc1ccc(NC(=O)c2ccnn2C)c(C)c1 ), measured viability, T/C is 93.5
